# SYSTEM: T1, CRH (CT Biotin) (human and mouse, C-terminal K-Biotin)
# T1 construct: also called Peptide 4 (CRH-Biotin)
# T1 peptide: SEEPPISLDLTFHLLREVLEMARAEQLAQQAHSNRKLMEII
# ASSAY_PROTOCOL: ELISA, biotin peptide on streptavidin plate
PARAMETER_MEASURED: EC50 (nM)
Numeric answer only, unit nM assumed.

Given the entry PR302341-60 (antibody, human IgG1, kappa, V domains shown, Humanized, PTM-removed variant of PR302341) VH: QVQLVQSGAEVKKPGASVKVSCKASGYTFTDYFMKWVRQAPGQRLEWMGVINPNQGDIFYNQKFKGRVTITRDTSASTAYMELSSLRSEDTAVYYCARGTDRALFAYWGQGTLVTVSS VL: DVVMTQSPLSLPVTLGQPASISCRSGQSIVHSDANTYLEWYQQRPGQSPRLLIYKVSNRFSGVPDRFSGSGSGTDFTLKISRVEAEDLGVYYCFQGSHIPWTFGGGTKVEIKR , report its measured EC50. 0.036
